# TEST_TARGET: NHE3 (Homo sapiens, UniProt P48764)
# Construct: expressed in transfected cells
# PROTOCOL_TEXT: Cell-based assay of NHE-3 activity (persistent inhibition), human
# RECORDED_CONDITIONS: human Persistence, 60 min incubation then washout

COMPOUND	TEST_TARGET	% inhibition
Cc1cc(S(=O)(=O)NCCOCCOCCNC(=O)NCCCCNC(=O)NCCOCCOCCNS(=O)(=O)c2ccc(O[C@H]3c4cc(Cl)cc(Cl)c4C[C@@H]3N3CCC[C@@H](N(C)C)C3)c(C)c2)ccc1O[C@H]1c2cc(Cl)cc(Cl)c2C[C@@H]1N1CCC[C@@H](N(C)C)C1 [Example 26]	NHE3 (Homo sapiens, UniProt P48764)	C (>70%)
N#Cc1cc(Cl)cc2c1C[C@H](N1CCNCC1)[C@H]2Oc1ccc(S(=O)(=O)N[C@@H]2CCN(CCOCCNC(=O)NCCCCNC(=O)NCCOCCN3CC[C@@H](NS(=O)(=O)c4ccc(O[C@H]5c6cc(Cl)cc(C#N)c6C[C@@H]5N5CCNCC5)cc4)C3)C2)cc1 [Example 108]	NHE3 (Homo sapiens, UniProt P48764)	C (>70%)

----------
# TEST_TARGET: NHE3 (Homo sapiens)
# Construct: expressed in transfected cells
# Sequence (P48764 26-834): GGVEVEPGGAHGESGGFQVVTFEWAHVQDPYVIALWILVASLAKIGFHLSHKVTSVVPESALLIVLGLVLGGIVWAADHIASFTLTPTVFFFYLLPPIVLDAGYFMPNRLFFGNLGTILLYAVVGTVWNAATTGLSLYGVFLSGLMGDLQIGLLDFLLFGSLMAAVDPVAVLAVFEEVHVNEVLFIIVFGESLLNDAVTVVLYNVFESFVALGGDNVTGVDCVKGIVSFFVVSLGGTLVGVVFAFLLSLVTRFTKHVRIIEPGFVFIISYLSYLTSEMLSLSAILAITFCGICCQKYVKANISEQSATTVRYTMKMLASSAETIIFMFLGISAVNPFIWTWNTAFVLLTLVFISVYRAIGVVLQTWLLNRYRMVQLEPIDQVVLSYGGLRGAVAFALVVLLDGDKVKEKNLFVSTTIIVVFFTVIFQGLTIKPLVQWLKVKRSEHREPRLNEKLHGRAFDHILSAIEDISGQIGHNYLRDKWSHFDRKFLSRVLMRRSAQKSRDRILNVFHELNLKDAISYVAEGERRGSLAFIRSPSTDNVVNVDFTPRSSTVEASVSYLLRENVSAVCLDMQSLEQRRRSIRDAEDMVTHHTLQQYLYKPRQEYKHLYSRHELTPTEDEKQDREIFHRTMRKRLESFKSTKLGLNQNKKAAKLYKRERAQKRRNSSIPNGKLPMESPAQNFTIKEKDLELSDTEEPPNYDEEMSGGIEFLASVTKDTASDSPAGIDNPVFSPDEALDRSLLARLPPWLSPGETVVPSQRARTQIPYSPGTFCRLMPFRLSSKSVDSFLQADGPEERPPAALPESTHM
# Sequence (Q99653 2-195 partner limits assumed): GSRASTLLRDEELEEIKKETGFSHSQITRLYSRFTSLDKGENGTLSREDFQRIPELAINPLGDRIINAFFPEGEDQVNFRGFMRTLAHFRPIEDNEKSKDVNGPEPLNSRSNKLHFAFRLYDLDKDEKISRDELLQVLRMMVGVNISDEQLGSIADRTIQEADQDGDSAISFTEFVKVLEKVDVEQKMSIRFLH
# PROTOCOL_TEXT: Cell-based assay of NHE-3 activity (pre-incubation inhibition), human
# RECORDED_CONDITIONS: human Preincubation, 0-30 μM test compound

MOLECULAR_STRING	pIC50
Cc1cc(S(=O)(=O)N2CC[C@H](COc3ccnc(CNC(=O)NCCCCNC(=O)NCc4cc(OC[C@H]5CCN(S(=O)(=O)c6ccc(O[C@H]7c8cc(Cl)cc(C#N)c8C[C@@H]7N(C)C)c(C)c6)C5)ccn4)c3)C2)ccc1O[C@H]1c2cc(Cl)cc(C#N)c2C[C@@H]1N(C)C	C (NHE3 pIC50 > 7)
C[C@H]1CN([C@H]2Cc3c(C#N)cc(Cl)cc3[C@@H]2Oc2ccc(S(=O)(=O)N[C@H]3CCN(CCOCCNC(=O)NCCCCNC(=O)NCCOCCN4CC[C@H](NS(=O)(=O)c5ccc(O[C@H]6c7cc(Cl)cc(C#N)c7C[C@@H]6N6CCN[C@@H](C)C6)cc5)C4)C3)cc2)CCN1	C (NHE3 pIC50 > 7)
Cc1cc(S(=O)(=O)N2CC[C@@H](COCCOCCNC(=O)NCCCCNC(=O)NCCOCCOC[C@@H]3CCN(S(=O)(=O)c4ccc(O[C@H]5c6cc(Cl)cc(Cl)c6C[C@@H]5N(C)C)c(C)c4)C3)C2)ccc1O[C@H]1c2cc(Cl)cc(Cl)c2C[C@@H]1N(C)C	C (NHE3 pIC50 > 7)

----------
Would you mind telling me the reported IC50 of each entry?
# TEST_TARGET: NHE3 (Homo sapiens)
# Construct: expressed in transfected cells
# Sequence (P48764 26-834): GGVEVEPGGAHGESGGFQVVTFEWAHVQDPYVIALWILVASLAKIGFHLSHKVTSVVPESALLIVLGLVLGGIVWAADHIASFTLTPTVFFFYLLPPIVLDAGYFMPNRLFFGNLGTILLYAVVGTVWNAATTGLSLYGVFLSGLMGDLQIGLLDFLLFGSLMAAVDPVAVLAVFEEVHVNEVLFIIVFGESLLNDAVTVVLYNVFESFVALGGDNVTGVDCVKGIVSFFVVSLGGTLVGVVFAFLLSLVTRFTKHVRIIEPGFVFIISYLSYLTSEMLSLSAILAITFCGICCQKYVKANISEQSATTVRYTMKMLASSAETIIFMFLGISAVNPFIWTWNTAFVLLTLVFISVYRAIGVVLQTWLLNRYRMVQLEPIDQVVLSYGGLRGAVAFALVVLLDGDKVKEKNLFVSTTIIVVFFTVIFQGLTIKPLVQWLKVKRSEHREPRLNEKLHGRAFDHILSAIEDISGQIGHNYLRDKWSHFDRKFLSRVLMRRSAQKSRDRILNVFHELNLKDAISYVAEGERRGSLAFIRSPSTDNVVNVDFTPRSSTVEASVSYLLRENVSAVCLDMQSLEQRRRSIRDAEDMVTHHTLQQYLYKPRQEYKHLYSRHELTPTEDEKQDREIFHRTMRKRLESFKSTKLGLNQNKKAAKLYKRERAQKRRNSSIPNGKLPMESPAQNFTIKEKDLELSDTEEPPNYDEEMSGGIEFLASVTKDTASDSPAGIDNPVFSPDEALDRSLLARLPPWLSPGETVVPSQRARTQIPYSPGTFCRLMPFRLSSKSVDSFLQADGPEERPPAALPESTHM
# Sequence (Q99653 2-195 partner limits assumed): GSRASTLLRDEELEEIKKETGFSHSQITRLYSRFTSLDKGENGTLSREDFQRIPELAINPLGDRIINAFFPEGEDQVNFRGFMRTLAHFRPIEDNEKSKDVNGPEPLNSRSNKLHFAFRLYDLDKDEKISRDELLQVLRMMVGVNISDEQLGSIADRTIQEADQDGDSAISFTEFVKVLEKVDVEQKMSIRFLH
# PROTOCOL_TEXT: Cell-based assay of NHE-3 activity (pre-incubation inhibition), human
# RECORDED_CONDITIONS: human Preincubation, 0-30 μM test compound
Counter-ions that a name gives are not always drawn.

COMPOUND	IC50
CN(C)C(=O)N1CCN([C@H]2Cc3c(Cl)cc(Cl)cc3[C@@H]2Oc2ccc(S(=O)(=O)NCCOCCOCCNC(=O)NCCCCNC(=O)NCCOCCOCCNS(=O)(=O)c3ccc(O[C@H]4c5cc(Cl)cc(Cl)c5C[C@@H]4N4CCN(C(=O)N(C)C)CC4)cc3)cc2)CC1	< 100 nM
N[C@@H]1CCCN([C@H]2Cc3c(Cl)cc(Cl)cc3[C@@H]2Oc2ccc(S(=O)(=O)NCCOCCOCCn3cc(CNC(=O)NCCCCNC(=O)NCc4cn(CCOCCOCCNS(=O)(=O)c5ccc(O[C@H]6c7cc(Cl)cc(Cl)c7C[C@@H]6N6CCC[C@@H](N)C6)cc5)nn4)nn3)cc2)C1	< 100 nM
C[C@@H](COCCOCCNC(=O)NCCCCNC(=O)NCCOCCOC[C@H](C)NS(=O)(=O)c1ccc(O[C@H]2c3cc(Cl)cc(Cl)c3C[C@@H]2N2CCC[C@@H](N)C2)cc1)NS(=O)(=O)c1ccc(O[C@H]2c3cc(Cl)cc(Cl)c3C[C@@H]2N2CCC[C@@H](N)C2)cc1 [Example 96, hydrochloride]	< 100 nM
Cc1cc(S(=O)(=O)N2CC[C@H](COCCOCCNC(=O)NCCCCNC(=O)NCCOCCOC[C@H]3CCN(S(=O)(=O)c4ccc(O[C@H]5c6cc(Cl)cc(C#N)c6C[C@@H]5N(C)C)c(C)c4)C3)C2)ccc1O[C@H]1c2cc(Cl)cc(C#N)c2C[C@@H]1N(C)C	< 100 nM

As a next step, examine the compound that follows.
# query: IC50 of entry O=C(NCCCCNC(=O)NCCOCCN1CC[C@@H](NS(=O)(=O)c2ccc(O[C@H]3c4cc(Cl)cc(Cl)c4C[C@@H]3N3CCNCC3)c(F)c2)C1)NCCOCCN1CC[C@@H](NS(=O)(=O)c2ccc(O[C@H]3c4cc(Cl)cc(Cl)c4C[C@@H]3N3CCNCC3)c(F)c2)C1 < 100 nM
